assayComment: NCI Yeast Anticancer Drug Screen. Data for the sgs1 mgt1 strain (AID 161);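 also: 0% = growth of cultures given vehicle only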
settings: S. cerevisiae sgs1 mgt1 strain, at 50.0 µM, hits give high values
About 79,000 compounds went through this panel and 15% of them were active in at least one assay; those are over-represented in the sample as a whole. Active and inactive are the calls of the source. Rule as the data show it: active = growth inhibition above about 70%; inactive = the rest.
# Lookup of reported growth inhibition keyed by entry

INSERT INTO assay_data (molecule, result) VALUES
  ('O=C1C(Cl)(Cl)C(=O)C(Cl)(Cl)C(=O)C1(Cl)Cl', '47% (inactive)'),
  ('Cc1nc2ccccc2c(=O)n1-c1ccc(-c2nnc(Sc3nnc(-c4ccc(-n5c(C)nc6ccccc6c5=O)cc4)n3-c3ccccc3)n2-c2ccccc2)cc1', '8.2% (inactive)'),
  ('O=C(O)CN1C(=O)C2C3c4ccccc4C(c4ccccc43)C2C1=O (stereo not given)', '1.25% (inactive)'),
  ('N#CCCCCC12C3C(=O)N(c4ccccc4)C(=O)C3ON1O[C@@H]1C(=O)N(c3ccccc3)C(=O)[C@@H]12 (stereo not given in full)', '26.7% (inactive)');

I have this molecule here, `COc1ccc(NC(=O)CN)cc1` , and I need its recorded growth inhibition.
0.2% (inactive)

Reference source for all entries: PubChem BioAssay (NCI)
